system: KM12; experiment: NCI 60 cell line screen; assay type: cell-based; conditions: KM12, Colon Cancer; single concentration 10^−5 M

- chemical-smiles: "N#Cc1c(-c2ccc(F)cc2)cc(-c2c[nH]c3ccccc23)nc1-c1c[nH]c2ccccc12"
  Growth % / %: 100.66
- chemical-smiles: "COc1ccc(-c2cc(-c3c[nH]c4ccccc34)nc(-c3c[nH]c4ccccc34)c2C#N)cc1"
  Growth % / %: 96.65
- chemical-smiles: "COc1cc(OC)cc(-c2cc(-c3c[nH]c4ccccc34)nc(-c3c[nH]c4ccccc34)c2C#N)c1"
  Growth % / %: 98.72
- chemical-smiles: "N#Cc1c(-c2ccccc2)cc(-c2c[nH]c3ccccc23)nc1-c1c[nH]c2ccccc12"
  Growth % / %: 102.51
- chemical-smiles: "N#Cc1c(-c2ccc(Cl)cc2)cc(-c2c[nH]c3ccccc23)nc1-c1c[nH]c2ccccc12"
  Growth % / %: 102.73
- chemical-smiles: "CN(C)c1ccc(-c2cc(-c3c[nH]c4ccccc34)nc(-c3c[nH]c4ccccc34)c2C#N)cc1"
  Growth % / %: 58.37
- chemical-smiles: "COc1cc(-c2cc(-c3c[nH]c4ccccc34)nc(-c3c[nH]c4ccccc34)c2C#N)cc(OC)c1OC"
  Growth % / %: 99.69
- chemical-smiles: "N#Cc1c(-c2ccc(O)cc2)cc(-c2c[nH]c3ccccc23)nc1-c1c[nH]c2ccccc12"
  Growth % / %: 96.89
- chemical-smiles: "N#Cc1c(-c2ccc(Br)cc2)cc(-c2c[nH]c3ccccc23)nc1-c1c[nH]c2ccccc12"
  Growth % / %: 99.86
- chemical-smiles: "N#Cc1c(-c2ccc([N+](=O)[O-])cc2)cc(-c2c[nH]c3ccccc23)nc1-c1c[nH]c2ccccc12"
  Growth % / %: 98.09
